- target.under.test: recombinant human MMP-9 (Homo sapiens (Human), UniProt P14780)
- Sequence (P14780 94-707): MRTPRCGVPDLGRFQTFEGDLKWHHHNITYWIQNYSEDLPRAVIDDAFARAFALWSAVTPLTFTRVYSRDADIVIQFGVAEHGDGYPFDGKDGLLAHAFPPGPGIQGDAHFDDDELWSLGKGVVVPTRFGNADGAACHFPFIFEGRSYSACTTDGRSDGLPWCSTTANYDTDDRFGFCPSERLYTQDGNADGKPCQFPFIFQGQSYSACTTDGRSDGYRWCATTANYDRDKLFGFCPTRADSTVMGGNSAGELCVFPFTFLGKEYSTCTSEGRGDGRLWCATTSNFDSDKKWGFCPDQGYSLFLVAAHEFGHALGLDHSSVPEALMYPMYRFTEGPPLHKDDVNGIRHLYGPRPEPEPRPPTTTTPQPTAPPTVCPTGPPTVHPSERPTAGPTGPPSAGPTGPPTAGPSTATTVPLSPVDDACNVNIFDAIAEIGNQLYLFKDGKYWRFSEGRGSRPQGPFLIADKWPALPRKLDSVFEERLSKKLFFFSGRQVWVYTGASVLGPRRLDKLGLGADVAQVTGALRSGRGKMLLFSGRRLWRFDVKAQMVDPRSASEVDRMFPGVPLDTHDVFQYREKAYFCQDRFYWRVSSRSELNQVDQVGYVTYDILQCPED
- procedure.text: MMP selectivity assay MMP-9
pIC50: −log10 of the molar value.
Overview of reported pIC50 across a group of compounds:

# example entries with known answers
# compound, pIC50
data = [
    ("O=C1NC(=O)C(c2occc2Sc2ccc(OCc3cccc(CO)c3)cc2)N1 (stereo not drawn)", "5.00 to 6.00"),
    ("NC(=O)c1cccc(COc2ccc(Sc3ccoc3C3NC(=O)NC3=O)cc2)c1 (stereo not drawn)", "5.00 to 6.00"),
    ("Cc1cc(Sc2ccc(OCc3cccc(CO)c3)cc2)c(C2NC(=O)NC2=O)o1 (stereo not drawn)", "5.00 to 6.00"),
    ("Cc1cccc(COc2ccc(Sc3ccoc3C3(CC(C)C)NC(=O)NC3=O)cc2)c1 (stereo not drawn)", "5.00 to 6.00"),
    ("Cc1cc(COc2ccc(Sc3ccoc3C3NC(=O)NC3=O)cc2)ccn1 (stereo not drawn)", "6.00 to 7.00"),
]

Q: Write down pIC50 measured for item CCCC1(c2occc2Sc2ccc(OCc3cccc(C)c3)cc2)NC(=O)NC1=O (stereo not drawn)
Ans: 5.00 to 6.00

====

Entries and their IC50 values follow.
- target.under.test: recombinant human MMP-12 catalytic domain (Homo sapiens (Human))
- Sequence (P39900 106-263): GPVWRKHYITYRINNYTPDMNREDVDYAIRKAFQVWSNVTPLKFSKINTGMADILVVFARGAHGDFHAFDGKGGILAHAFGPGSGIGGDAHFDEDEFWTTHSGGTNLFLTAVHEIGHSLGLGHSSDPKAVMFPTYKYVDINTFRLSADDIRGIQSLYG
- procedure.text: MMP-12 inhibitory assay (fluorogenic substrate cleavage)
- Type: biochemical
- condition.label: readout at 30 minutes; read-out: MMP-12 IC50

Recorded results for 3 compounds are shown here.
# compound, IC50
records = [
    ("Cc1cc(Sc2ccc(OCc3cccc(CO)c3)cc2)c(C2NC(=O)NC2=O)o1 (stereo not drawn)", "< 0.01 µM"),
    ("COc1cc(COc2ccc(Sc3ccoc3C3NC(=O)NC3=O)cc2)ccn1 (stereo not drawn)", "0.01 to 0.1 µM"),
    ("CCCOc1cccc(COc2ccc(Sc3ccoc3C3NC(=O)NC3=O)cc2)c1 (stereo not drawn)", "> 1 µM"),
]

Q: Fill in IC50 for record Cc1cc(COc2ccc(Sc3ccoc3C3NC(=O)NC3=O)cc2)c[n+]([O-])c1 (stereo not drawn)
Ans: 0.1 to 1 µM

Q: Determine from records and report IC50 for NC(=O)c1ccc(COc2ccc(Sc3ccoc3C3NC(=O)NC3=O)cc2)cc1 (stereo not drawn)
Ans: 0.01 to 0.1 µM

Q: Fill in IC50 for record NC(=O)c1cc(COc2ccc(Sc3ccoc3C3NC(=O)NC3=O)cc2)ccn1 (stereo not drawn)
Ans: 0.01 to 0.1 µM

====

- target.under.test: recombinant human MMP-2 (Homo sapiens (Human))
- Sequence (P08253 110-660): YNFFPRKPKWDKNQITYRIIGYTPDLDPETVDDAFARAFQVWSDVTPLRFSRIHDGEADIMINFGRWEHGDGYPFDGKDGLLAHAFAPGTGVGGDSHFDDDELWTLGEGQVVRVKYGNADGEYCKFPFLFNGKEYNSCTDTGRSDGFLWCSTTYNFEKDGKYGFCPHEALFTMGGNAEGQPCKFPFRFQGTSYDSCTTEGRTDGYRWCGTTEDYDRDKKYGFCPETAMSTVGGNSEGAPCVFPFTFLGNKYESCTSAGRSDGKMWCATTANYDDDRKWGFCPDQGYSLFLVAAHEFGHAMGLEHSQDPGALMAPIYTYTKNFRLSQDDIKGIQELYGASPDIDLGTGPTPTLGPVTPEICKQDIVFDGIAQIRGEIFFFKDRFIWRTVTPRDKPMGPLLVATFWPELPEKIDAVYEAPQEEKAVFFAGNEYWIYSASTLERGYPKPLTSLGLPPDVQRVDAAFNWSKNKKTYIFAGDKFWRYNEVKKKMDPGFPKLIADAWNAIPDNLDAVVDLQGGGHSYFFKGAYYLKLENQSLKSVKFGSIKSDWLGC
- procedure.text: MMP selectivity assay MMP-2
- Experimental: The inhibitory effect of compounds on the rate of cleaving fluorogenic MMP substrate (Enzo, BML-P128) by recombinant human MMP-12 catalytic domain (Enzo, BML-SE138) was carried out by methods known in the art. […] The enzyme and compounds were pre-incubated on a shaker to mix in wells. […] The plate was then fed into a plate reader to measure fluorescence intensity at Excitation/Emission wavelengths of 340 nm/440 nm every 10 mins for at least 1 hour at 37° C. […]
endpoint.label: IC50

Worked set:
# compound, IC50
rows = [
    ("NC(=O)c1cccc(COc2ccc(Sc3ccoc3C3NC(=O)NC3=O)cc2)c1 (stereo not drawn) [FC-17]", "100 to 1000 nM"),
    ("CCCC1(c2occc2Sc2ccc(OCc3cccc(C)c3)cc2)NC(=O)NC1=O (stereo not drawn) [FC-11]", "1000 to 10000 nM"),
    ("Cc1cc(COc2ccc(Sc3ccoc3C3NC(=O)NC3=O)cc2)ccn1 (stereo not drawn) [FC-4]", "100 to 1000 nM"),
    ("Cc1cccc(COc2ccc(Sc3ccoc3C3(CC(C)C)NC(=O)NC3=O)cc2)c1 (stereo not drawn) [FC-10]", "1000 to 10000 nM"),
    ("Cc1cc(Sc2ccc(OCc3cccc(CO)c3)cc2)c(C2NC(=O)NC2=O)o1 (stereo not drawn) [FC-27]", "100 to 1000 nM"),
]

Q: For O=C1NC(=O)C(c2occc2Sc2ccc(OCc3cccc(CO)c3)cc2)N1 (stereo not drawn) [FC-23] , write its IC50.
Ans: 100 to 1000 nM

====

- target.under.test: recombinant human MMP-3 (Homo sapiens (Human), UniProt P08254)
- Sequence (P08254 100-477): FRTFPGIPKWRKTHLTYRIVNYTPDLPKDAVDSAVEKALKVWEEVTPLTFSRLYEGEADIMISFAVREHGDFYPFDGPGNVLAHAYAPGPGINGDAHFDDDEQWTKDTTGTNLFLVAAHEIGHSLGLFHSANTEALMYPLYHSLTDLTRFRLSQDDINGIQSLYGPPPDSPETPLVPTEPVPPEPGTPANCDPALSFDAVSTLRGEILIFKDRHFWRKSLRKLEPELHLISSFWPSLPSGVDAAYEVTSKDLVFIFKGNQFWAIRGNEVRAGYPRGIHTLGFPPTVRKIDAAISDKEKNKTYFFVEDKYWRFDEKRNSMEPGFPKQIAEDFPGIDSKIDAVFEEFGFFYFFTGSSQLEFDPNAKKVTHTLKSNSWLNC
- procedure.text: MMP selectivity assay MMP-3
pIC50: −log10 of the molar value.
// reported pIC50 per item

Solved cases below.
# compound, endpoint.label, assay.result
measured = [
    ("O=C1NC(=O)C(c2occc2Sc2ccc(OCc3cccc(CO)c3)cc2)N1 (stereo not drawn)", "pIC50", "5.00 to 6.00"),
    ("Cc1cc(COc2ccc(Sc3ccoc3C3NC(=O)NC3=O)cc2)ccn1 (stereo not drawn)", "pIC50", "6.00 to 7.00"),
    ("Cc1cc(Sc2ccc(OCc3cccc(CO)c3)cc2)c(C2NC(=O)NC2=O)o1 (stereo not drawn)", "pIC50", "6.00 to 7.00"),
    ("CCCC1(c2occc2Sc2ccc(OCc3cccc(C)c3)cc2)NC(=O)NC1=O (stereo not drawn)", "pIC50", "6.00 to 7.00"),
    ("Cc1cccc(COc2ccc(Sc3ccoc3C3(CC(C)C)NC(=O)NC3=O)cc2)c1 (stereo not drawn)", "pIC50", "6.00 to 7.00"),
]

Okay, now this compound:
Q: Fill in pIC50 for record NC(=O)c1cccc(COc2ccc(Sc3ccoc3C3NC(=O)NC3=O)cc2)c1 (stereo not drawn)
Ans: 6.00 to 7.00

====

- target.under.test: recombinant human MMP-8 (Homo sapiens (Human), UniProt P22894)
- Sequence (P22894 101-467): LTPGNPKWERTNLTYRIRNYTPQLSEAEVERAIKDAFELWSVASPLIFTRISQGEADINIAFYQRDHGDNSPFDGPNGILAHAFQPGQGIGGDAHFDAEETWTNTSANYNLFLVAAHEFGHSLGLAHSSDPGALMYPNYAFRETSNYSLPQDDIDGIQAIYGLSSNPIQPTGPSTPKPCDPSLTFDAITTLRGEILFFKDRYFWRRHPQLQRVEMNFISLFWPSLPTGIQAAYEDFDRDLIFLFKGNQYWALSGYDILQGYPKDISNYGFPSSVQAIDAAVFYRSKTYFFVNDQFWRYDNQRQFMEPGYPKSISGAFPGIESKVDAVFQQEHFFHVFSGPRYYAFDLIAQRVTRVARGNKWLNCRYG
- procedure.text: MMP selectivity assay MMP-8
pIC50: −log10 of the molar value.
Overview of recorded pIC50 for various compounds

Q: Retrieve pIC50 measured for CCCC1(c2occc2Sc2ccc(OCc3cccc(C)c3)cc2)NC(=O)NC1=O (stereo not drawn) and print it.
Ans: 5.00 to 6.00

Q: Quick one: give measured pIC50 for Cc1cccc(COc2ccc(Sc3ccoc3C3(CC(C)C)NC(=O)NC3=O)cc2)c1 (stereo not drawn)
Ans: 5.00 to 6.00

Q: Note down pIC50 recorded for Cc1cc(COc2ccc(Sc3ccoc3C3NC(=O)NC3=O)cc2)ccn1 (stereo not drawn)
Ans: 7.00 to 8.00

Q: Give the value of pIC50 reported for the following: O=C1NC(=O)C(c2occc2Sc2ccc(OCc3cccc(CO)c3)cc2)N1 (stereo not drawn)
Ans: 5.00 to 6.00

Q: Respond only with pIC50 recorded for Cc1cc(Sc2ccc(OCc3cccc(CO)c3)cc2)c(C2NC(=O)NC2=O)o1 (stereo not drawn)
Ans: 6.00 to 7.00

Q: Tell me pIC50 reported for NC(=O)c1cccc(COc2ccc(Sc3ccoc3C3NC(=O)NC3=O)cc2)c1 (stereo not drawn)
Ans: 6.00 to 7.00

====

- target.under.test: recombinant human MMP-10 (Homo sapiens (Human))
- Sequence (P09238 99-476): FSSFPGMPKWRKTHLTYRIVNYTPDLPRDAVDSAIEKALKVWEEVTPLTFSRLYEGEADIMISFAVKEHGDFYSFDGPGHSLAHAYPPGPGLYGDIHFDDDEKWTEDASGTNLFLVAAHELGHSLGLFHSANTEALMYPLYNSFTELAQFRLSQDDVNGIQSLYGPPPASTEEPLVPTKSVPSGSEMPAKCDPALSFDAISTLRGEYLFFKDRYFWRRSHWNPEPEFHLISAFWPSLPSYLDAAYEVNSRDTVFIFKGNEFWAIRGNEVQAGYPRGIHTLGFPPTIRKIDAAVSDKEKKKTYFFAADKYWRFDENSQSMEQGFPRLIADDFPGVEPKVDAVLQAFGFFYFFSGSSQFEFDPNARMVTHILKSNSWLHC
- procedure.text: MMP selectivity assay MMP-10
Quick reference: IC50 of the listed items.

# compound, target.under.test, IC50
data = [
    ("Cc1cc(Sc2ccc(OCc3cccc(CO)c3)cc2)c(C2NC(=O)NC2=O)o1 (stereo not drawn)", "recombinant human MMP-10 (Homo sapiens (Human))", "100 to 1000 nM"),
    ("NC(=O)c1cccc(COc2ccc(Sc3ccoc3C3NC(=O)NC3=O)cc2)c1 (stereo not drawn)", "recombinant human MMP-10 (Homo sapiens (Human))", "100 to 1000 nM"),
    ("Cc1cccc(COc2ccc(Sc3ccoc3C3(CC(C)C)NC(=O)NC3=O)cc2)c1 (stereo not drawn)", "recombinant human MMP-10 (Homo sapiens (Human))", "1000 to 10000 nM"),
    ("CCCC1(c2occc2Sc2ccc(OCc3cccc(C)c3)cc2)NC(=O)NC1=O (stereo not drawn)", "recombinant human MMP-10 (Homo sapiens (Human))", "1000 to 10000 nM"),
    ("O=C1NC(=O)C(c2occc2Sc2ccc(OCc3cccc(CO)c3)cc2)N1 (stereo not drawn)", "recombinant human MMP-10 (Homo sapiens (Human))", "1000 to 10000 nM"),
]

Now consider a different compound.
Q: # return recorded IC50 for input Cc1cc(COc2ccc(Sc3ccoc3C3NC(=O)NC3=O)cc2)ccn1 (stereo not drawn)
Ans: 100 to 1000 nM

====

- target.under.test: recombinant human MMP-12 catalytic domain (Homo sapiens (Human))
- procedure.text: MMP-12 inhibitory assay (fluorogenic substrate cleavage)
- Type: biochemical
- condition.label: readout at 30 minutes; read-out: MMP-12 IC50
Measured IC50 values are reported for all entries that follow.

Example entries begin here.
# compound, assay.result
data = [
    ("Cc1cccc(COc2ccc(Sc3ccoc3C3(C)NC(=O)NC3=O)cc2)c1 (stereo not shown)", "< 10 nM"),
    ("Cc1cccc(COc2ccc(Sc3ccoc3C3(CC(C)C)NC(=O)NC3=O)cc2)c1 (stereo not shown)", "< 10 nM"),
    ("CC(C)Oc1cc(COc2ccc(Sc3ccoc3C3NC(=O)NC3=O)cc2)ccn1 (stereo not shown)", "100 to 1000 nM"),
    ("CCC1(c2occc2Sc2ccc(OCc3cccc(C)c3)cc2)NC(=O)NC1=O (stereo not shown)", "10 to 100 nM"),
]

Q: Enter IC50 (test system recombinant human MMP-12 catalytic domain (Homo sapiens (Human))) for CCC1(c2occc2Sc2ccc(OCc3ccnc(C)c3)cc2)NC(=O)NC1=O (stereo not shown)
Ans: < 10 nM

Q: Recall the reported IC50 of NC(=O)c1cccc(COc2ccc(Sc3ccoc3C3NC(=O)NC3=O)cc2)c1 (stereo not shown) on recombinant human MMP-12 catalytic domain (Homo sapiens (Human)) and write it down.
Ans: < 10 nM

Q: Identify measured IC50 obtained with recombinant human MMP-12 catalytic domain (Homo sapiens (Human)) for Cc1cccc(COc2ccc(Sc3ccoc3C3(C(C)C)NC(=O)NC3=O)cc2)c1 (stereo not shown) .
Ans: < 10 nM

Q: Answer briefly: IC50 recorded on recombinant human MMP-12 catalytic domain (Homo sapiens (Human)) for Cc1ccnc(COc2ccc(Sc3ccoc3C3NC(=O)NC3=O)cc2)c1 (stereo not shown)
Ans: 100 to 1000 nM

Q: Please look at Cc1cc(COc2ccc(Sc3ccoc3C3NC(=O)NC3=O)cc2)cc[n+]1[O-] (stereo not shown) and tell me its recorded IC50 on recombinant human MMP-12 catalytic domain (Homo sapiens (Human)).
Ans: 10 to 100 nM

Q: Enter measured IC50, system recombinant human MMP-12 catalytic domain (Homo sapiens (Human)), for the compound shown: O=C1NC(=O)C(c2occc2Sc2ccc(OCc3cccc(CO)c3)cc2)N1 (stereo not shown)
Ans: < 10 nM

Where do the numbers come from? From patent US10851089B2.
